Biological target: acetylcholinesterase (Rattus norvegicus, UniProt P37136)
Construct: corpora striata dissected free, weighted and homogenized in 19 volumes (approximately 7 mg protein/ml) of 0.05M Phosphate Buffer; from tissue; host or cells: rat brain corpora striata, crude homogenate
Sequence (P37136 32-614): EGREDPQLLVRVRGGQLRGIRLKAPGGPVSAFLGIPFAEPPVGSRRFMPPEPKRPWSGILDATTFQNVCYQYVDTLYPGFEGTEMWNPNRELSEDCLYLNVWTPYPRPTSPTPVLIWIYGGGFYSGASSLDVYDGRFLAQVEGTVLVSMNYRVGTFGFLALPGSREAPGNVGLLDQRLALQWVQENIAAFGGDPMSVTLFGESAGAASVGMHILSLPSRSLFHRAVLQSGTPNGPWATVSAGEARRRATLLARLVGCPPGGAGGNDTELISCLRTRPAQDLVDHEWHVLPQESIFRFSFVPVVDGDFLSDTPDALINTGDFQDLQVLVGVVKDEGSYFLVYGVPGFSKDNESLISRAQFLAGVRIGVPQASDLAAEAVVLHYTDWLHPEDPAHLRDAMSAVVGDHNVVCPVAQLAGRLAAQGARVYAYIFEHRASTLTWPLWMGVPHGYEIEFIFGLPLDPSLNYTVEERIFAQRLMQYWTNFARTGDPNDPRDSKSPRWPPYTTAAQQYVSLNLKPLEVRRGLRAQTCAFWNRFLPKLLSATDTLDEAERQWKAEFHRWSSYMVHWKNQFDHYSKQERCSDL
Assay: biochemical
Conditions: read-out: Inhibition of Acetylcholinesterase Activity IC50
metric-name: pIC50
In plain terms, pIC50 is the concentration in mol/L turned into minus its base-10 logarithm.

Reported pIC50 of CC(c1ccc(OC(=O)N(C)C)c(F)c1)N1CCN(c2ccccn2)CC1 (stereo not shown) : 4.85

###

Where a name gives a salt, the structure may show the parent alone.
metric-name: melting point

Examples from the recorded data:
>>> recorded_value("COC1(OCCO)CCN(Cc2ccccc2)C1 (stereo not shown)")
"55 to 57 °C"
>>> recorded_value("CCOC(=O)COc1cc(C=O)ccc1OCc1ccccc1")
"36 to 43 °C"
>>> recorded_value("COc1cc(CN2CCN(c3ccccc3F)CC2)ccc1OC(=O)N(C)C")
"130 to 133 °C"
>>> recorded_value("COc1cc(CN2CCN(c3ccccc3OC)CC2)ccc1OC(=O)N(C)C (as salt: hydrochloride) [Example 49, Dihydrochloride]")
"196 to 206 °C"
>>> recorded_value("C#CCOc1cc(CN2CCc3cc(OC)c(OC)cc3C2)ccc1OC (as salt: hydrochloride) [Example 36]")
"220 to 222 °C (dec.)"

C#CCOc1cc(C=O)ccc1OS(C)(=O)=O has a reported melting point of 81 to 83 °C

Recorded result, CNC(=O)Oc1ccc(CN2CCc3cc(OC)c(OC)cc3C2)cc1OC (as salt: hydrochloride) [Example 42] , melting point: 205 to 208 °C (dec.)

COc1cc(CN2CCN(c3ccccc3Cl)CC2)ccc1OC(=O)N(C)C.Cl has a reported melting point of 190 to 193 °C

Record CNC(=O)Oc1ccc(CN2CCN(c3ccc([N+](=O)[O-])cc3)CC2)cc1OC , field melting point: 155 to 157 °C

So for COc1cc(CN2CCN(c3ccccn3)CC2)ccc1OC(=O)N(C)C [Example 40] , the logged melting point turned out to be 140 to 145 °C
